// log10(IC50) lookup, one value per entry
- Tested Target: lysine gingipain (Kgp) (Porphyromonas gingivalis (strain ATCC 33277 / DSM 20709 / CIP 103683 / JCM 12257 / NCTC 11834 / 2561), UniProt B2RLK2)
- Assay: Inhibition of lysine gingipain, fluorogenic assay (Z-His-Glu-Lys-MCA)
- Assay type: biochemical
- Condition Description: Table 4; read-out: IC50 (nM) Kgp
Hello, just confirming the data are log10 of IC50 with units of nM.

Compound	log10(IC50)
NCCCCC(NC(=O)c1ccc(F)cc1)C(=O)COc1c(F)cccc1F (centres unmarked) [Compound 35a]	-1.00
COC(C)(C)C(=O)NC(CCCCN)C(=O)COC(C(F)(F)F)C(F)(F)F (centres unmarked) [Compound 69a]	-0.68
NCCCCC(NC(=O)c1cccc(OCCCF)c1)C(=O)COc1c(F)cccc1F (centres unmarked) [Compound 30a]	-0.68
CS(C)(=O)=CC(=O)C(CCCCN)NC(=O)C1CCCC1 (centres unmarked) [Compound 58a]	0.67
NCCCCC(NC(=O)c1cccc(F)c1)C(=O)COc1c(F)cccc1F (centres unmarked) [Compound 26a]	-1.05

**Q:** Entry under review: NCCCCC(NC(=O)c1cccnc1F)C(=O)COc1ccon1 (centres unmarked) [Compound 56a] . Reported log10(IC50)?
**A:** -1.00

**Q:** Now consider COC(C)(C)C(=O)NC(CCCCN)C(=O)COc1cnc(C)nc1 (centres unmarked) [Compound 65a] .
**A:** -0.80

----------
- Tested Target: lysine gingipain (Kgp) (Porphyromonas gingivalis (strain ATCC 33277 / DSM 20709 / CIP 103683 / JCM 12257 / NCTC 11834 / 2561), UniProt B2RLK2)
- Assay: Inhibition of lysine gingipain, fluorogenic assay (Z-His-Glu-Lys-MCA)
- Assay type: biochemical
- Condition Description: Table 4; read-out: IC50 (nM) Kgp
Lab note - cut at 0.09 nM for IC50: T if strictly below, F if not.

**Q:** Criterion: IC50 strictly below 0.09 nM. Is it met by NCCCC[C@H](NC(=O)C1CCCC1)C(=O)COc1c(F)c(F)cc(F)c1F (stereo in doubt) [Compound 73, reference compound] ?
**A:** T

**Q:** Try this compound too: NCCCCC(NC(=O)C1CCCC1)C(=O)Cn1cnccc1=O (stereo not shown) [Compound 39a]
**A:** F

**Q:** Item: NCCCCC(NC(=O)c1cccnc1)C(=O)COc1c(F)ccc(F)c1F (stereo not shown) [Compound 42a]
**A:** T

**Q:** Okay, and [N-]=[N+]=Nc1cccc(C(=O)NC(CCCCN)C(=O)COc2c(F)cccc2F)c1 (stereo not shown) [Compound 33a] ?
**A:** T

**Q:** And COC(C)(C)C(=O)NC(CCCCN)C(=O)COc1c(F)ccc(F)c1F (stereo not shown) [Compound 47a] ?
**A:** T

**Q:** What about this compound? COC(C)(C)C(=O)NC(CCCCN)C(=O)COc1c(F)cccc1F (stereo not shown) [Compound 48a]
**A:** T

**Q:** Also need NCCCCC(NC(=O)c1ccnc(F)c1)C(=O)COc1c(F)cccc1F (stereo not shown) [Compound 31a] , thanks.
**A:** F

**Q:** // next record COC(C)(C)C(=O)NC(CCCCN)C(=O)COc1cccnc1 (stereo not shown) [Compound 64a]
**A:** F

**Q:** Do the same for CN(C)c1ccc(/N=N/c2ccc(C(=O)NCc3cc(F)c(OCC(=O)C(CCCCN)NC(=O)c4cccc(N=[N+]=[N-])c4)c(F)c3)cc2)cc1 (stereo not shown) [Compound 44a] please
**A:** F
